This collection of values is drawn from PubChem BioAssay AID1996.

CONDITION PARAMETERS: buffer; pH 7.4; 200.0 µM

COMPOUND	solubility kinetic / µg/mL
Cc1ccc(C(=O)O/N=C(\N)c2ccccn2)cc1C	2.6
Cc1noc(C)c1C(=O)OC(C)C(=O)NC(C)c1ccc(Cl)cc1Cl (stereo not drawn)	10.6
O=C(CCn1c(=S)oc2ccccc21)NCCC1=CCCCC1	0.8
CC(=O)N1CCn2c3c(c4cc(C)ccc42)CCCC31 (stereo not drawn)	38.6
CC1CCN(C(=O)c2cc(-c3ccc4c(c3)OCO4)on2)CC1	28.2
Cc1nc2c3c(sc2c(=O)[nH]1)NC(=O)CC3c1ccccc1Cl (stereo not drawn)	1.5
CCOc1ccc(CCNC(=O)Nc2ccccc2)cc1OCC	5.9
COc1ccc(C(=O)NCCc2cn3ccccc3n2)cc1	42.9
COc1cccc(Oc2nc(N)ncc2[N+](=O)[O-])c1	32.3

----------
solubility kinetic reference
CONDITION PARAMETERS: buffer; pH 7.4; 200.0 µM
MEASURED ENDPOINT: solubility kinetic

CCOc1ccccc1NC(=O)C(=O)NCCC1=CCCCC1 < 0.3 µg/mL
[Br-].c1ccc(-c2c[n+]3c(n2-c2ccccc2)SCC3)cc1 > 53.9 µg/mL
Cc1ccc(CC(=O)NCCN2CCOCC2)cc1 > 39.4 µg/mL

----------
CONDITION PARAMETERS: buffer; pH 7.4; 200.0 µM
solubility kinetic reference

MOLECULE	solubility kinetic
CCCC1Cc2[nH]c(=O)c(C#N)cc2CO1 (centres undefined)	> 0.0327 mg/mL
Cn1c2ccccc2n2c(=O)cc(-c3ccccc3)c(C#N)c12	< 0.0002 mg/mL
O=C(CNC(=O)c1ccccc1F)NCc1ccncc1	> 0.0431 mg/mL
CNC(=O)c1cc(S(=O)(=O)NC2CCCCCC2)ccc1C	> 0.0487 mg/mL

----------
CONDITION PARAMETERS: buffer; pH 7.4; 200.0 µM
Would you please tag the item label 1 when its solubility kinetic is 20 µg/mL or above, and label 0 when it is below?

COMPOUND	DISCRETE LABEL
ClCC1=Nc2ccccc2Cc2ccccc21	label 0
CCc1ccc(NC(=O)COC(=O)c2cccs2)cc1	label 0
Cl.c1cncc(CNCCc2c[nH]c3ccccc23)c1	label 1
S=C(Nc1cccnc1)Nc1ccccn1	label 1
COc1ccc(OC2CCN(S(=O)(=O)c3ccccc3)CC2)cc1	label 0
NC(=O)NC(=O)COC(=O)/C=C/c1cccs1	label 0
O=C(NCC1CCCCC1)c1cccnc1Cl	label 1
COc1ccccc1C(=O)C1CCCN(C(=O)C2CCCC2)C1 (stereo not drawn)	label 1
O=C(c1ccc(Cl)cc1)N1CCN(c2cccc3[nH]ccc23)CC1	label 1
O=C(Cc1ccccc1F)NC1CCSc2ccccc21 (stereo not drawn)	label 0
COc1ccccc1CNC(=O)CCN1C(=O)c2ccccc2C1=O	label 1
O=C(NCCNC(=O)c1ccco1)c1ccc(F)cc1	label 1
COC(=O)c1c(-c2ccc(F)cc2)csc1NC(=O)C1CCCO1 (stereo not drawn)	label 0
CCCc1ccc2oc(C(=O)N(C)Cc3cnccn3)c(C)c2c1	label 1
COc1cc2c(cc1OC)C(C)N(S(=O)(=O)c1cccs1)CC2 (stereo not drawn)	label 1
O=[N+]([O-])c1cc(Cl)ccc1N1CCOCC1	label 1
COc1ccc(CNC(=O)C2CCC(=O)N2C(C)C)c(OC)c1 (stereo not drawn)	label 1
Cc1ccc2[nH]c(=O)c(COC(=O)C3CCCCC3)cc2c1	label 0

----------
CONDITION PARAMETERS: buffer; pH 7.4; 200.0 µM
MEASURED ENDPOINT: solubility kinetic (µg/mL)

COMPOUND	MEASURED RESULT
Cc1ccc(NC(=O)Cn2c(=O)oc3ccccc32)cc1	7.2
Cc1ccc(S(=O)(=O)NCC(=O)OCCOc2ccccc2F)cc1	21.5
COC(=O)c1oc(-c2ccc(Cl)cc2)nc1C	2
Cc1cc2ncn(CS(C)(=O)=O)c2cc1C	34.3
Cn1c(COc2ccc(F)cc2)nc2ccccc21	36.3
COc1ccccc1C(=O)N/C(=C\c1ccccc1)C(=O)NC(C)C(=O)O (stereo unspecified)	52.2
COc1cc(/C=C2\SC(=O)N(CCNC(=O)c3c(C)noc3C)C2=O)cc(OC)c1OC	4.8
CCc1cccc(C)c1NC(=S)N(CCOC)C(C)c1ccco1 (stereo unspecified)	25.8
CC(C)c1ccc(S(=O)(=O)NCc2ccc3c(c2)OCO3)cc1	1.9
Cc1cnc(C(=O)OCc2nc3ccsc3c(=O)[nH]2)cn1	45.3
CCN(CC(=O)Nc1ccc(OC(F)F)cc1)C1CCCCC1	33.1
O=C(CSc1nccc(-c2cccs2)n1)Nc1cccc(Cl)c1	2.2

----------
CONDITION PARAMETERS: buffer; pH 7.4; 200.0 µM

MOLECULE	solubility kinetic
CN(CC(=O)Nc1ccc(F)c(F)c1F)C(=O)c1ccc(=O)[nH]c1	> 50.9 µg/mL
CCSc1nnc(SCC(=O)Nc2cc(C)on2)s1	> 47.5 µg/mL
Cn1cnnc1SCC(=O)Nc1ccc(F)cc1	> 39.9 µg/mL
Cc1c(N2C(=O)CSC2c2ccco2)c(=O)n(-c2ccccc2)n1C (stereo not given)	> 53.3 µg/mL
COC(=O)C1CN(C(=O)C(C)Oc2ccccc2F)c2ccccc2O1 (stereo not given)	> 53.9 µg/mL
Cc1ccc(C(=O)Oc2ccc(N3C(=O)CCC3=O)c(C)c2)cc1	< 0.7 µg/mL
N#Cc1ccccc1OCC(=O)NC(=O)NC1CCS(=O)(=O)C1 (stereo not given)	> 50.6 µg/mL
OC(COc1ccccc1)CN1CCCCCC1 (stereo not given)	> 37.4 µg/mL
O=C1CCC(C(=O)Nc2cccc(Br)c2)N1 (stereo not given)	> 42.5 µg/mL
CN(C(=O)COc1ncnc2sccc12)C1CCCCC1	> 45.8 µg/mL

----------
CONDITION PARAMETERS: buffer; pH 7.4; 200.0 µM
solubility kinetic reference
MEASURED ENDPOINT: solubility kinetic

COMPOUND	MEASURED RESULT
O=C(COC(=O)CN1C(=O)NC2(CCCC2)C1=O)NCc1ccc(Cl)cc1Cl	> 64.2 µg/mL
O=C(Nc1nccs1)C1=COCCO1	> 31.8 µg/mL
CSCCC1NC(=O)N(CC(=O)Nc2ccc(Cl)c(S(=O)(=O)N3CCOCC3)c2)C1=O (stereo not given)	> 73.6 µg/mL
Cc1cc(C(=O)N/N=C2\CCCC(=O)C2)c(C)o1	> 37.2 µg/mL
COC(=O)C1=C(C)N(C)C(=O)NC1c1ccc(O)c(Cl)c1 (stereo not given)	> 46.6 µg/mL
CCOC(=O)C1CCN(CC(=O)c2c(C)n(C)c3ccc(OC)cc23)CC1	> 55.9 µg/mL
CNC(=O)COC(=O)c1ccccc1NC(=O)c1ccco1	> 45.3 µg/mL
COc1ccc2cc[nH]c2c1	15.3 µg/mL
CN(C(=O)Cn1cc(C#N)c2ccccc21)c1ccccc1	7.4 µg/mL
Cc1cccc(C)c1C(=NCCN(C)C)c1ccccc1.Cl	> 53 µg/mL
CC1(C)N2CC3([N+](=O)[O-])CN1CC([N+](=O)[O-])(C2)C3	34.5 µg/mL
CC(=O)c1c(C)[nH]c(C(=O)N2CC(C)CC(C)C2)c1C (stereo not given)	> 41.5 µg/mL
CCCCN(C1CCS(=O)(=O)C1)S(=O)(=O)c1ccc(C(C)C)cc1 (stereo not given)	1.9 µg/mL
CCOc1ccc(NC(=O)COC(=O)Cn2nc(C)c([N+](=O)[O-])c2C)cc1OCC	> 63.1 µg/mL
COc1cc(OC)cc(-c2nc(-c3cccs3)no2)c1	< 0.3 µg/mL

----------
CONDITION PARAMETERS: buffer; pH 7.4; 200.0 µM
Would you please tag the item Y when its solubility kinetic is 30 µg/mL or above, and N when it is below?

MOLECULE	DISCRETE LABEL
CCOC(=O)c1cnc(COc2ccccc2Cl)[nH]c1=O	Y
COc1ccccc1N1C(=O)c2cccc3cccc(c23)C1=O	N
Cc1nc(NC(=O)c2cccnc2Cl)sc1C	Y
CC(=O)c1cccc(NC(=O)c2cc(C)nn2-c2ccccc2)c1	Y
O=C(Nc1ccc(O)cc1)N1CCOCC1	Y
CCCC1(c2ccccc2)NC(=O)NC1=O (stereo unspecified)	Y
O=C(NCCCn1ccnc1)c1ccccc1Br	Y
O=C(Cc1ncon1)Nc1ccc(F)c(F)c1F	Y
Cc1ccccc1C(=O)NNC(=O)c1ccc2nc[nH]c2c1	Y
CC1CCN(C(=O)c2ccc(N3C(=O)c4ccccc4C3=O)cc2)CC1	Y
CC(C)CNS(=O)(=O)c1cc2c3c(c1)CCC(=O)N3CCC2	Y
Cl.OCCNCc1cccc(Br)c1	Y
CC1CCCN(C2(O)C(=O)Nc3ccc(Cl)cc32)C1 (stereo unspecified)	Y
O=C(NCc1ccc(F)cc1)C1CC(=O)N(Cc2ccco2)C1 (stereo unspecified)	Y
NC(CO)(CO)CO.O=C(c1ccccc1)c1ccc2n1CCC2C(=O)O (stereo unspecified)	Y
CC(=O)c1ccc(NC(=O)CCCC(=O)c2ccccc2)cc1	N
O=C(O)C1(Cc2nc3ccccc3[nH]2)CCCC1	N
COc1ccc(Cl)cc1N(CC(=O)N1CCCC1)S(C)(=O)=O	Y
CCN(C(=O)CCCCC(=O)N(CC)c1ccccc1)c1ccccc1	Y
Cc1ccc(NC(=O)Nc2cc(C(F)(F)F)c[nH]c2=O)cc1	N
COc1ccc(CCC(=O)OCC(=O)Nc2ccccc2)cc1	Y
CC1=CC(C)(C)N=C(Nc2nc(C)c3cc(C)cc(C)c3n2)N1	Y
Cc1cccc(-c2nnc(SCC(=O)NC3CC3)n2C)c1	Y
O=C(CCc1nc2ccccc2s1)Nc1cccnc1	Y
Cl.Clc1cccc(OCCn2ccnc2)c1	Y
CCn1c([N+](=O)[O-])nc2c1c(=O)[nH]c(=O)n2C	Y
COc1ccccc1N1CCN(Cc2cnc(-c3ccccc3)[nH]2)CC1	N
CN(c1ccccc1)S(=O)(=O)c1ccc2ccccc2c1	N
O=C(Nc1ccc(S(=O)(=O)N2CCOCC2)cc1)c1cccnc1	Y
CCOc1ccccc1C(=O)NCC(=O)OCC(=O)c1c(N)n(C)c(=O)n(C)c1=O	N
CN(Cc1ccccc1)C(=O)COC(=O)C12CC3CC(CC(Br)(C3)C1)C2	N
O=C1CCC(=O)N1Cc1c(Cl)cccc1Cl	Y
NC1=NC(=O)/C(=C/c2ccc(OCC(=O)O)cc2)S1	Y
Cc1ccc2cc(CNCCc3ccccc3C)c(=O)[nH]c2c1	Y
Cc1ccc(NCC(=O)N/N=C/c2ccc(C(=O)O)cc2)cc1	Y
CCOC(=O)NC1Cc2ccccc2C1Sc1ccccn1 (stereo unspecified)	Y
CN1CCN(c2ccc(CNC(=O)c3cc4ccccc4o3)cc2)CC1	Y
COc1cccc(CNc2ccc3c(c2)nc(C)n3C)c1OC	Y
CC1C(c2ccccc2)N(C)C(c2ccccc2)CC1(O)c1ccc(F)cc1 (stereo unspecified)	N
